We begin with a simple list: items and their reported hERG current change (%, negative = inhibition) at 1uM.
Molecular target: human ether-à-go-go-related gene (hERG) potassium channel (human)
Test: primary screen, population patch clamp on CHO cells stably expressing hERG; higher = less effect of the substance
Among all 310,000 compounds or so, about 2,200 (0.71%) showed an effect of 50% or more. The effect is printed as a negative number. Shown is part of a subset that was picked to be rich in strong results.
property.label: hERG current change (%, negative = inhibition) at 1uM (%)

- molecular.string: "CC(=O)Nc1ccc(S(=O)(=O)NCC(=O)OCC(=O)N2CCc3ccccc32)cc1"
  tested.on: "human ether-à-go-go-related gene (hERG) potassium channel (human)"
  recorded.number: 2.85
- molecular.string: "O=C(c1ccco1)N1CCCN(Cc2nc(Cc3ccccc3)no2)CC1"
  tested.on: "human ether-à-go-go-related gene (hERG) potassium channel (human)"
  recorded.number: 1.8
- molecular.string: "Cc1ccccc1N1CCN(Cc2nc(Cc3ccccc3)no2)CC1"
  tested.on: "human ether-à-go-go-related gene (hERG) potassium channel (human)"
  recorded.number: 8.68
- molecular.string: "Fc1cccc(Cc2noc(CN3CCSCC3)n2)c1"
  tested.on: "human ether-à-go-go-related gene (hERG) potassium channel (human)"
  recorded.number: 17.3
- molecular.string: "Fc1cccc(Cc2noc(CN3CCC(c4ccncc4)CC3)n2)c1"
  tested.on: "human ether-à-go-go-related gene (hERG) potassium channel (human)"
  recorded.number: -1.98

----------
We begin with a simple list: items and their reported hERG current change (%, negative = inhibition) at 1uM.
Biological target: human ether-à-go-go-related gene (hERG) potassium channel (human, UniProt Q12809)
Sequence (Q12809 whole entry, looked up): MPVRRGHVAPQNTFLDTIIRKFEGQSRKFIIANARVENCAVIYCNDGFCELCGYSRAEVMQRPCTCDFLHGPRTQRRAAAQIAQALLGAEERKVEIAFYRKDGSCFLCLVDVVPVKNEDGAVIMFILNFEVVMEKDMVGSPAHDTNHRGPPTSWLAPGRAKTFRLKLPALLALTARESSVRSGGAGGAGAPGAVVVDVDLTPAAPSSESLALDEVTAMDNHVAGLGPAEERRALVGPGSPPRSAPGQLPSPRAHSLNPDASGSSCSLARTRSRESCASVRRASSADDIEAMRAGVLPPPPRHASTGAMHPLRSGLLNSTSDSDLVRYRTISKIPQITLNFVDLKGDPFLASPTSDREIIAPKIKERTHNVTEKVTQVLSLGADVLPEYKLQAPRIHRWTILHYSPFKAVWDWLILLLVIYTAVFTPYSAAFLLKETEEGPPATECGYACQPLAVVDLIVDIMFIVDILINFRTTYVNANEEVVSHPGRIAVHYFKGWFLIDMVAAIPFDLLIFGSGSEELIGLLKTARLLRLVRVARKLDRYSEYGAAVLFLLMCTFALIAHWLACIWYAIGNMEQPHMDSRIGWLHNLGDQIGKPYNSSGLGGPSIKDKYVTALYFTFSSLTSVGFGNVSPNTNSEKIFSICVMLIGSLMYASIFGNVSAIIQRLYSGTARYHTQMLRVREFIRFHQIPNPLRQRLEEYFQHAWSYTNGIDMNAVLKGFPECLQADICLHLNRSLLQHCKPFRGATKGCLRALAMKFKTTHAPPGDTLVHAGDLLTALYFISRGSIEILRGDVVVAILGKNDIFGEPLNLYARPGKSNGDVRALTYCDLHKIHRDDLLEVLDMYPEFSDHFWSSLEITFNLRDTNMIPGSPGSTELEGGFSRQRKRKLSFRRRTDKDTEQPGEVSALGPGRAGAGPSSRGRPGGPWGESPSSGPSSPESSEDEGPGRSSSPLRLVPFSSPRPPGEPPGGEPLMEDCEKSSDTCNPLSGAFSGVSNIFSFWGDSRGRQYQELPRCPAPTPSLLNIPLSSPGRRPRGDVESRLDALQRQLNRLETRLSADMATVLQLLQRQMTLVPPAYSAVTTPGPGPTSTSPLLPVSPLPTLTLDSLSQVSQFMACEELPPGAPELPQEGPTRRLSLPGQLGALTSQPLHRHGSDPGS
Assay: primary screen, population patch clamp on CHO cells stably expressing hERG; higher = less effect of the substance
From the text: Briefly, Chinese hamster ovary (CHO) cells stably expressing the hERG channel were dislodged from tissue culture flasks and dispensed into PPC plates. […] Small molecule effects on hERG current density were quantified by […].
Out of some 310,000 compounds screened, about 2,200 (0.71%) showed an effect of 50% or more. The effect is printed as a negative number. The list comes from a sample in which strong results are over-represented; it also holds close analogues and randomly drawn compounds.
property.label: hERG current change (%, negative = inhibition) at 1uM (%)

- compound: "O=C(CSc1ccc2nnc(-c3ccccn3)n2n1)Nc1ccc2c(c1)OCCO2"
  tested.on: "human ether-à-go-go-related gene (hERG) potassium channel (human, UniProt Q12809)"
  unit.abbreviation: "%"
  recorded.number: -2.96
- compound: "Cl.O=C(NCCN1CCCC1)c1ccc(Cl)cc1Cl"
  tested.on: "human ether-à-go-go-related gene (hERG) potassium channel (human, UniProt Q12809)"
  unit.abbreviation: "%"
  recorded.number: 16.6
- compound: "O=C(CSc1nnc(-c2ccccc2)n1Cc1ccco1)NCc1ccc2c(c1)OCO2"
  tested.on: "human ether-à-go-go-related gene (hERG) potassium channel (human, UniProt Q12809)"
  unit.abbreviation: "%"
  recorded.number: -22.2
- compound: "O=C(CSc1ccc2nnc(-c3cccnc3)n2n1)NCc1ccc2c(c1)OCO2"
  tested.on: "human ether-à-go-go-related gene (hERG) potassium channel (human, UniProt Q12809)"
  unit.abbreviation: "%"
  recorded.number: 4.47
- compound: "C=C(C)C1CC=C(C)/C(=N/NC(=O)CCC(=O)Nc2ccccc2Cl)C1 (centres unmarked)"
  tested.on: "human ether-à-go-go-related gene (hERG) potassium channel (human, UniProt Q12809)"
  unit.abbreviation: "%"
  recorded.number: 6.51
